SYSTEM_NAME: P2X7 (UniProt Q99572)
PROTOCOL_TEXT: P2X7 activity of Table 1
Type: cell-based
TEST_CONTEXT: pIC50 values for P2X7
READOUT_NAME: pIC50

Specify reported pIC50 for the compound shown: `Cc1ccc(-n2ncccc2=O)cc1NC(=O)C1=CNC(=O)C[C@H]1c1cccc(F)c1`
7.53

Specify reported pIC50 for the compound shown: Cc1ccc(-c2cc(C)n(CC(C)O)n2)cc1NC(=O)C1=CNC(=O)C[C@H]1c1ccc(F)cc1 (stereo partly drawn)
7.643

Specify reported pIC50 for the compound shown: `Cc1cc(Cl)c(CN2CCOC2=O)cc1NC(=O)C1=CNC(=O)C[C@H]1c1ccc(F)cc1`
8.135

Specify reported pIC50 for the compound shown: `Cc1ccc(-n2ncc(=O)[nH]c2=O)cc1NC(=O)C1=CN(C)C(=O)C[C@H]1c1ccc(F)cc1`
6.81

Specify reported pIC50 for the compound shown: Cc1ccc(-c2cc(C)n(CCO)n2)cc1NC(=O)C1=CNC(=O)CC1c1cc(F)cc(F)c1 (stereo not drawn)
7.85

Specify reported pIC50 for the compound shown: `Cc1ccc(-c2cc(C)n(CCO)n2)cc1NC(=O)C1=CNC(=O)C[C@H]1c1cccc(F)c1`
7.92

Specify reported pIC50 for the compound shown: `Cc1ccc(-c2ccnn(CCO)c2=O)cc1NC(=O)C1=CN(C)C(=O)C[C@H]1c1ccc(F)cc1`
7.8

Specify reported pIC50 for the compound shown: `COCCn1nc(-c2ccc(C)c(NC(=O)C3=CNC(=O)C[C@H]3c3ccc(F)cc3)c2)cc1C`
7.3

Specify reported pIC50 for the compound shown: `Cc1ccc(-n2ncccc2=O)cc1NC(=O)C1=CN(C)C(=O)C[C@H]1c1ccc(F)cc1`
7.17

Specify reported pIC50 for the compound shown: `Cc1ccc(-c2cc(C)n(CC(=O)NCCN(C)C)n2)cc1NC(=O)C1=CNC(=O)C[C@H]1c1ccc(F)cc1`
7.685

Specify reported pIC50 for the compound shown: `Cc1cc(F)c(-c2ccnn(C)c2=O)cc1NC(=O)C1=CN(C)C(=O)C[C@H]1c1ccc(F)cc1`
7.864

Specify reported pIC50 for the compound shown: `Cc1ccc(-c2ccncc2)cc1NC(=O)C1=CNC(=O)C[C@H]1c1ccc(F)cc1`
7.22

Specify reported pIC50 for the compound shown: `COc1ccc(-c2ccc(C)c(NC(=O)C3=CN(C)C(=O)C[C@H]3c3ccc(F)cc3)c2)nn1`
7.22

Specify reported pIC50 for the compound shown: `Cc1cnn(-c2ccc(C)c(NC(=O)C3=CNC(=O)C[C@H]3c3ccc(F)cc3)c2)c(=O)c1`
7.655

Specify reported pIC50 for the compound shown: `Cc1cc(-c2ccc(C)c(NC(=O)C3=CNC(=O)C[C@H]3c3ccc(F)cc3)c2)ccn1`
7.045

====

SYSTEM_NAME: P2X7 (UniProt Q99572)
PROTOCOL_TEXT: P2X7 activity of Table 1
Type: cell-based
TEST_CONTEXT: pIC50 values for P2X7
Protocol: Stock solutions of compounds were prepared from powders as a 10 mM DMSO stock solution. These solutions were stored at RT during the two week period of these experiments to prevent freeze-thaw of the DMSO stocks. The DMSO stocks were added to the appropriate assay buffer at a concentration of 10 μM, and then diluted serially to the final concentrations that were tested. […]
READOUT_NAME: pIC50

Specify reported pIC50 for the compound shown: `CCn1c(=O)cnn(-c2ccc(C)c(NC(=O)C3=CNC(=O)C[C@H]3c3ccc(F)cc3)c2)c1=O`
7.575

Specify reported pIC50 for the compound shown: `Cc1cncc(-c2ccc(C)c(NC(=O)C3=CNC(=O)C[C@H]3c3ccc(F)cc3)c2)n1`
6.58

Specify reported pIC50 for the compound shown: `COC[C@H](O)Cn1c(=O)cnn(-c2ccc(C)c(NC(=O)C3=CN(C)C(=O)C[C@H]3c3ccc(F)cc3)c2)c1=O`
7.5367

Specify reported pIC50 for the compound shown: `Cc1cc(F)c(-c2cccn(C)c2=O)cc1NC(=O)C1=CN(C)C(=O)C[C@H]1c1ccc(F)cc1`
7.83

Specify reported pIC50 for the compound shown: `Cc1ccc(-c2ccc(C)c(NC(=O)C3=CNC(=O)C[C@H]3c3ccc(F)cc3)c2)cn1`
6.653

Specify reported pIC50 for the compound shown: `COC[C@H](O)Cn1nc(-c2ccc(C)c(NC(=O)C3=CNC(=O)C[C@H]3c3ccc(F)cc3)c2)cc1C`
7.72

Specify reported pIC50 for the compound shown: `Cc1ccc(-n2ncc(=O)n(CCO)c2=O)cc1NC(=O)C1=CN(C)C(=O)C[C@H]1c1ccc(F)cc1`
7.5

Specify reported pIC50 for the compound shown: `COC[C@@H](O)Cn1nc(-c2ccc(C)c(NC(=O)C3=CNC(=O)C[C@H]3c3ccc(F)cc3)c2)cc1C`
7.15

Specify reported pIC50 for the compound shown: `COC[C@H](O)Cn1nc(-c2ccc(C)c(NC(=O)C3=CN(C)C(=O)C[C@H]3c3cccc(F)c3)c2)cc1C`
7.2

Specify reported pIC50 for the compound shown: `COC[C@@H](O)Cn1nc(-c2ccc(C)c(NC(=O)C3=CN(C)C(=O)C[C@H]3c3cccc(F)c3)c2)cc1C`
7.1

Specify reported pIC50 for the compound shown: `Cc1ccc(-n2cccn2)cc1NC(=O)C1=CNC(=O)C[C@H]1c1ccc(F)cc1`
7.763

Specify reported pIC50 for the compound shown: `Cc1ccc(-c2ccc(=O)[nH]n2)cc1NC(=O)C1=CN(C)C(=O)C[C@H]1c1ccc(F)cc1`
6.585

Specify reported pIC50 for the compound shown: `Cc1ccc(-c2cc(C3CC3)[nH]n2)cc1NC(=O)C1=CNC(=O)C[C@H]1c1ccc(F)cc1`
6.935

Specify reported pIC50 for the compound shown: `Cc1ccc(-n2ccc(=O)[nH]c2=O)cc1NC(=O)C1=CN(C)C(=O)C[C@H]1c1ccc(F)cc1`
6.44

Specify reported pIC50 for the compound shown: `Cc1cnn(-c2cc(NC(=O)C3=CNC(=O)C[C@H]3c3ccc(F)cc3)c(C)cc2F)c(=O)c1`
7.455
